test system: PC-3; assay: NCI tumour cell line growth inhibition, 48 h
The source made the active and inactive calls. No stated cut-off is given here; in the data, active = GI50 up to about 1.1 µM and inactive = higher.
Your response should consist of one outcome taken from active, inactive

NC(=O)NC(=O)c1cccc(NC(=O)CBr)c1 :: active

Field: outcome | Entry: CN(C)CC1CCC/C(=C\c2ccc(Cl)cc2)C1=O (centres undefined)
inactive

What did the test return for "O=c1cc(NNc2cccc(F)c2)[nH]c(=S)[nH]1" ?
inactive

Dear colleague, could you share the recorded outcome for "Clc1ccc(/C(=C/c2ccccc2)Cn2ccnc2)cc1" when you have a moment?
inactive

====

tested on: SR; experiment: NCI tumour cell line growth inhibition, 48 h
Activity calls are given as the source filed them. Rule as the data show it: active = GI50 up to about 1.1 µM and inactive = higher. Where a SMILES comes first, the peptide text is derived from it. Bridges are numbered along the chain shown (N, C = ends). [ ]: non-standard residue; d: D form. The star is where a group is joined. ξ: configuration not given here. ξNMePhe(4-NMe2) = CNC(Cc1ccc(N(C)C)cc1)C(=O)O; Picolinoyl(3-OH) = O=C(c1ncccc1O)*; ξPip(4-oxo) = O=C1CCNC(C(=O)O)C1; Phg = N[CH](C(=O)O)c1ccccc1; Abu = CC[CH](N)C(=O)O
Pick one: active, inactive

Consider the worked cases shown below.
CNC(=O)N1CN(c2ccccc2)C2(CCN(CCCC3(c4ccc(F)cc4)OCCO3)CC2)C1=O :: inactive
Cc1ccc2c(/C=C/c3ccc(N(C)C)cc3)ccc(C(C)C)cc1-2 :: inactive
Cc1cccc(NC(=O)CC2C(=O)Nc3ccccc3S2(=O)=O)c1C (stereo not given) :: inactive
COC(=O)C(Cc1ccc2c(c1)CCCC2)Cc1cc2c(cc1C(O)OC)CCC2 (stereo not given) :: inactive
Nc1cc(N2CCCC2)nc(=O)n1Cc1ccccc1 :: inactive

Record lookup: outcome of this test for "CCOC(=O)c1c(NC(=O)Nc2ccccc2)c(C(N)=O)c2n1CCCCC2" ?
inactive

In this assay, the call recorded for CS(=O)(=O)N1CC(CI)c2ccc(O)cc21 (stereo not given) was what?
inactive

// outcome(item) with item = "COc1ccc2c(c1)-c1c(c3cc(OC)ccc3n1CCN1CCOCC1)CC2"
inactive

State the result this test recorded for Nc1nc2c3c(ncn3CC(O)CO2)n1 (stereo not given) .
inactive

Returns: the outcome recorded for "N/N=C1/C(=N/O)CCc2nonc21" in this assay.
inactive

Outcome? CC(=O)OC(COc1ccc2c(c1)[n+]([O-])nc(N)[n+]2[O-])CN1CCCCC1 (stereo not given)
inactive

// outcome(item) with item = COc1ccc(N[S+]([O-])c2c(C)cc(C)cc2C)cc1 (stereo not given)
inactive

Call for entry "C(/Cc1ccc2c(c1)OCO2)=N\N=C1NCCCN1" :
inactive

Write down the call the test reported for this compound. Item: CC1=C/C(O)CC(=O)Cc2nc(co2)C(=O)N2CCC=C2C(=O)OC(C(C)C)C(C)/C=C/C(=O)NC\C=C\1.CCC1NC(=O)C(NC(=O)c2ncccc2O)C(C)OC(=O)C(c2ccccc2)NC(=O)C2CC(=O)CCN2C(=O)C(Cc2ccc(N(C)C)cc2)N(C)C(=O)C2CCCN2C1=O (stereo not given) ({Picolinoyl(3-OH)}-T[Abu]P[ξNMePhe(4-NMe2)][ξPip(4-oxo)][Phg]; ester 1-C; configuration not given here)
inactive

Outcome? Cc1ccc2c(c1)C(=O)C1(C2)Cc2c(C)cccc2C1=O (stereo not given)
inactive

Each compound tested received a call. Report the one for "O=c1cc(NNc2cccc(F)c2)[nH]c(=S)[nH]1" .
inactive

What is the recorded call for this compound in the test? "COc1cc2c(c(OC)c1)C(=O)O[C@H](C)CCCC/C=C/C2"
inactive

Query: recorded result category for COC1=C(C)C(=O)c2c(c(COC(N)=O)c3n2CC2C3N2C)C1=O (stereo not given) in this test
active

# outcome recorded in this test, key = CN1CC2=C(N=C(S)NC2c2ccccc2)/C(=C/c2ccccc2)C1 (stereo not given)
inactive

Short answer needed: outcome of this test for "O=S(=O)(O)c1ccc2c(/N=N\c3cccc4ccccc34)c(O)c(S(=O)(=O)O)cc2c1" ?
inactive

====

compounds and their reported GI50
test system: BT-549; test: NCI tumour cell line growth inhibition, 48 h
Calls of active or inactive are those of the source. No stated cut-off is given here; in the data, active = GI50 up to about 1.1 µM and inactive = higher.

Reference set, count: 5
CC(=O)OC[C@H]1[C@@H]2C(CC[C@]13CO3)OC(=O)CC(C)[C@]2(C)CCc1ccoc1 (stereo not given in full) :: > 100 µM (inactive)
CN1CC2=C(N=C(S)NC2c2ccccc2)/C(=C/c2ccccc2)C1 (stereo not given) :: > 100 µM (inactive)
CC1(C)CC(=O)c2c(nc(SSc3nc4c(c(-c5ccc(Br)cc5)c3C#N)C(=O)CC(C)(C)C4)c(C#N)c2-c2ccc(Br)cc2)C1 :: > 10 µM (inactive)
CCCCc1ccc(Nc2nc3c(ncn3C3CC(O)C(CN=[N+]=[N-])O3)c(=O)[nH]2)cc1 (stereo not given) :: > 100 µM (inactive)
COC(=O)CCC1=CCC2(SC)C(=O)Nc3cccc1c32 (stereo not given) :: > 100 µM (inactive)

Which value of GI50 has been reported for CCOC1NC(=O)c2ccccc21 (stereo not given) in the records?
> 100 µM (inactive)

Query (compound): "CCCCCC/C=C\CCCCCCCCCC1=C(CN2CCN(C)CC2)C(=O)C=C(OC)C1=O" ; field requested: GI50
3.87 µM (inactive)

Give the measured GI50 of "CCC(CON(C)c1ccccc1)(SC)SC" .
> 100 µM (inactive)

Name the reported GI50 value associated with the compound COc1ccc(NC2C(=O)C3(C)CCC2C3(C)C)cc1 (stereo not given)
69 µM (inactive)

Item C[C@H](C1CC(C)(O)C(C)(O)C(O)O1)[C@H]1CC[C@H]2[C@@H]3[C@@H]4O[C@@H]4[C@@]4(O)CC=CC(=O)[C@]4(C)[C@H]3CC[C@]12C (stereo not given in full) has what recorded GI50?
> 50 µM (inactive)

So what does the record say about GI50 for "O=C(CCNC12CC3CC(CC(C3)C1)C2)c1ccccc1" ?
28.7 µM (inactive)

Would you kindly share the measured GI50 for "C(=C\c1ccccc1)/C=N/c1nc2cc3sc(/N=C/C=C/c4ccccc4)nc3cc2s1" ?
> 96.2 µM (inactive)

Look up GI50 for this compound: "O=C1/C(=C/c2ccc(Cl)cc2)N=C(c2ccccc2)N1c1nc2c(Cl)cc(Cl)cc2s1"
28.5 µM (inactive)

Fill blank: measured GI50 of the compound "O=C(c1ccccc1)c1sc2c(=O)c(C(=O)c3ccccc3)c(C(=O)c3ccccc3)sc2c(=O)c1C(=O)c1ccccc1" is ____.
37.7 µM (inactive)

Can you look up the measured GI50 of "CCOC(=O)c1nc2ccc(C(F)(F)F)cc2nc1NCc1ccc(OC)c(OC)c1" for me?
51.3 µM (inactive)

Quick one: GI50 of "Nc1cc(N2CCCC2)nc(=O)n1Cc1ccccc1" ?
> 100 µM (inactive)

Which GI50 value belongs to "c1ccc2c(c1)SCCCS2" ?
> 100 µM (inactive)

Return reported GI50; argument: O=C(CC1C=Cc2ccccc2N1C(=O)c1ccccc1)c1ccccc1 (stereo not given)
23.8 µM (inactive)

Endpoint output: GI50 of "Cc1cc(C)nc(NS(=O)(=O)c2ccc(Nc3c4ccccc4nc4c(C(=O)NCCCN(CCO)CCO)cccc34)cc2)n1" . Value?
11.6 µM (inactive)

Entry "Clc1ccc(CSCc2ccc(Cl)cc2Cl)c(Cl)c1" has what GI50?
97.5 µM (inactive)

I have this compound here, COc1cc(C2S/C(=C/c3ccccc3)C(=O)N2c2ccc([N+](=O)[O-])cc2)cc(OC)c1OC (stereo not given) , and I need its recorded GI50.
44.9 µM (inactive)

Suppose we examine the compound "C=C(C)C(=O)O[C@@H]1C[C@@]2(C)O[C@@H]2C[C@H](O)/C(C)=C/[C@H]2OC(=O)C(=C)[C@@H]21" ; what GI50 value has been reported?
63.1 µM (inactive)

I have this compound here, "CCOC(=O)c1nc2ccc(C(F)(F)F)cc2nc1Oc1ccc(OC)cc1" , and I need its recorded GI50.
> 100 µM (inactive)

What value of measured GI50 is listed for "CCOC(=O)c1c(NC(=O)Nc2ccccc2)c(C(N)=O)c2n1CCCCC2" ?
> 100 µM (inactive)

Form field: reported GI50 of "CC1=NN(c2ccccc2)C(=O)/C1=C1\SC(c2ccccc2)(c2ccccc2)c2ccccc21"
> 100 µM (inactive)

====

Measured GI50 of individual entries
tested on: SF-268; experiment: NCI tumour cell line growth inhibition, 48 h
The source made the active and inactive calls. Rule as the data show it: active = GI50 up to about 1.1 µM and inactive = higher. Where a SMILES comes first, the peptide text is derived from it. The star is where a group is joined. Cbz = O=C(OCc1ccccc1)*; Boc = CC(C)(C)OC(=O)*; tBu = CC(C)(C)*

Solved cases (10 shown):
CC(C)[C@H](C)/C=C/[C@@H](C)C1CC[C@H]2[C@@]34C=C[C@]5(C[C@@H](O)CC[C@]5(C)[C@H]3CC[C@]12C)OO4 (stereo not given in full) :: 29.7 µM (inactive)
C[C@]12CCC(=O)C[C@H]1CCC(O)[C@@H]2Br (stereo not given in full) :: > 100 µM (inactive)
O=S(=O)(c1ccccc1)C1CC(c2nc3ccccc3[nH]2)=NO1 (stereo not given) :: > 100 µM (inactive)
CC1(C)CC(=O)c2c(nc(SSc3nc4c(c(-c5ccc(Br)cc5)c3C#N)C(=O)CC(C)(C)C4)c(C#N)c2-c2ccc(Br)cc2)C1 :: > 10 µM (inactive)
Clc1ccc(CSCc2ccc(Cl)cc2Cl)c(Cl)c1 :: 71 µM (inactive)
CC(OC(C)(C)C)C(NC(=O)C(CCCCNC(=O)OC(C)(C)C)NC(=O)C(Cc1c[nH]c2ccccc12)NC(=O)C(Cc1ccccc1)NC(=O)OCc1ccccc1)C(=O)NC(Cc1ccccc1)C(=O)O (stereo not given) (Cbz-FWK(Boc)T(tBu)F-OH; configuration not given here) :: 45.7 µM (inactive)
C=CC1OC(CCCOC(=O)C(C)(C)C)O[C@@H]1CC (stereo not given in full) :: > 100 µM (inactive)
Cc1cccc(C(O)c2ccccn2)c1O (stereo not given) :: > 100 µM (inactive)
COc1cc(Nc2cnc3ccc(N)cc3n2)cc(OC)c1OC :: > 100 µM (inactive)
CCOC(=O)[C@H]1Nc2ccc(Cl)cc2[C@H]2c3ccccc3O[C@H]21 :: > 100 µM (inactive)

Find the recorded GI50 belonging to CC(C)(C)OC(=O)NC(Cc1ccc(OCc2ccccc2)cn1)C(=O)N1CCCC1 (stereo not given) and report it.
89.1 µM (inactive)

Which measured GI50 value corresponds to "O=C1OC(=O)C(=C\c2ccc3c(c2)OCO3)/C1=C/c1ccc2c(c1)OCO2" ?
> 100 µM (inactive)

Which measured GI50 value corresponds to "O=C(C[n+]1ccccc1)N/N=C(/CCC(=O)N(Cc1ccccc1)Cc1ccccc1)CC(=O)c1ccccc1" ?
> 100 µM (inactive)

Data origin, for the record: ChEMBL document CHEMBL1201862
